Sourced from patent US20200055891A1

# Target entity: SP6 RNA polymerase (Enterobacteria phage SP6, UniProt P06221)
# Construct: purchased New England BioLabs
# Sequence (P06221 1-874): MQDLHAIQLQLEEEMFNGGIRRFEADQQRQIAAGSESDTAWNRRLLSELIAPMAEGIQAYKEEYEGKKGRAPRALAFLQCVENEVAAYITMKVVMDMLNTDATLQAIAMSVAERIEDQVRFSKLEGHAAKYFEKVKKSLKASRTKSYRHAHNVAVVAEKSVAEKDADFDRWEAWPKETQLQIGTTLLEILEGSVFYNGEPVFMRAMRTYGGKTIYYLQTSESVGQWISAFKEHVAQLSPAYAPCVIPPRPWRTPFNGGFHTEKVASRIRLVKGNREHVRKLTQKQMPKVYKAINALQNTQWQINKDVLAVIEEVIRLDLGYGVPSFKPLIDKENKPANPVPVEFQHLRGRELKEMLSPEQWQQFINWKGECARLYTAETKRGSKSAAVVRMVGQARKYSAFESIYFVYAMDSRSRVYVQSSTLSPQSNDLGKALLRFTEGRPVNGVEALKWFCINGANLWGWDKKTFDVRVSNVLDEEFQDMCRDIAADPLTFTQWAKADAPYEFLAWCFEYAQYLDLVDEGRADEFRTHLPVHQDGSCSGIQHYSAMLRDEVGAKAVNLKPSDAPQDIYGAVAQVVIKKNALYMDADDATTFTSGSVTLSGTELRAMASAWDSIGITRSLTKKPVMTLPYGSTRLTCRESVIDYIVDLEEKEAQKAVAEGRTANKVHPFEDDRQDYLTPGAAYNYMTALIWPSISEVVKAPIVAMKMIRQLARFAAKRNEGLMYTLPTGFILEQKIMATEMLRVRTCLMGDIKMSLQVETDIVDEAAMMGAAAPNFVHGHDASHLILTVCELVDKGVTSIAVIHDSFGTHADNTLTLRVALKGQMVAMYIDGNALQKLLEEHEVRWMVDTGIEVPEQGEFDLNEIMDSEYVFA
# Assay summary: Capping efficiency: incorporation of cap analogues at the 5′ end of short transcripts by in vitro transcription
# Type: biochemical
# Condition: 1.25 mM cap analogue, 0.125 mM GTP
Quantity kind: Capping efficiency (%)
API: value field is a number in %; no unit string.

Give reported Capping efficiency value for Cn1c[n+]([C@@H]2O[C@H](COP(=O)(O)OP(=O)([O-])OP(=O)(O)OC[C@H]3O[C@@H](n4cnc5c(=O)[nH]c(N)nc54)[C@H](O)[C@@H]3O)[C@@H](O)[C@H]2O)c2nc(N)[nH]c(=O)c21 [m^7GpppG, reference compound]
90

Give reported Capping efficiency value for C[n+]1cn([C@@H]2O[C@H](COP(=O)(O)OP(=O)([O-])OP(=O)(O)Cc3cn(CCNP(=O)(O)OC[C@H]4O[C@@H](n5cnc6c(=O)[nH]c(N)nc65)C(O)C4O)nn3)C(O)C2O)c2nc(N)[nH]c(=O)c21 (stereo partly shown)
44

Give reported Capping efficiency value for C[n+]1cn([C@@H]2O[C@H](COP(=O)(O)OP(=O)(O)OP(=O)([O-])c3cn(CCNP(=O)(O)OC[C@H]4O[C@@H](n5cnc6c(=O)[nH]c(N)nc65)C(O)C4O)nn3)C(O)C2O)c2nc(N)[nH]c(=O)c21 (stereo partly shown)
52

Give reported Capping efficiency value for CO[C@H]1[C@@H](O)[C@H]([n+]2cn(C)c3c(=O)[nH]c(N)nc32)O[C@@H]1COP(=O)([O-])OP(=O)(O)OP(=O)(O)OC[C@H]1O[C@@H](n2cnc3c(=O)[nH]c(N)nc32)[C@H](O)[C@@H]1O [m2^7,3′-OGpppG, reference compound]
83

Give reported Capping efficiency value for C[n+]1cn([C@@H]2O[C@H](COP(=O)(O)NCCn3cc(CP(=O)(O)OP(=O)([O-])OP(=O)(O)OC[C@H]4O[C@@H](n5cnc6c(=O)[nH]c(N)nc65)C(O)C4O)nn3)C(O)C2O)c2nc(N)[nH]c(=O)c21 (stereo partly shown)
62

Give reported Capping efficiency value for C[n+]1cn([C@@H]2O[C@H](COP(=O)(O)OP(=O)([O-])c3cn(CCNP(=O)(O)OC[C@H]4O[C@@H](n5cnc6c(=O)[nH]c(N)nc65)C(O)C4O)nn3)C(O)C2O)c2nc(N)[nH]c(=O)c21 (stereo partly shown)
56.8

Give reported Capping efficiency value for COC1C(O)[C@@H](COP(=O)(O)OP(=O)(O)OP(=O)([O-])c2cn(CCOP(=O)(O)OP(=O)(O)OC[C@H]3O[C@@H](n4cnc5c(=O)[nH]c(N)nc54)C(O)C3O)nn2)O[C@H]1n1c[n+](C)c2c(=O)[nH]c(N)nc21 (stereo partly shown)
38.0

Give reported Capping efficiency value for COC1C(O)[C@@H](COP(=O)(O)OP(=O)(O)OP(=O)([O-])c2cn(CCNP(=O)(O)OP(=O)(O)OC[C@H]3O[C@@H](n4cnc5c(=O)[nH]c(N)nc54)C(O)C3O)nn2)O[C@H]1n1c[n+](C)c2c(=O)[nH]c(N)nc21 (stereo partly shown)
43.0

Give reported Capping efficiency value for C[n+]1cn([C@@H]2O[C@H](COP(=O)(O)OP(=O)(O)CCc3cn(CCNP(=O)(O)OP(=O)([O-])OC[C@H]4O[C@@H](n5cnc6c(=O)[nH]c(N)nc65)[C@@H](O)C4O)nn3)[C@H](O)C2O)c2nc(N)[nH]c(=O)c21 (stereo partly shown)
48.8

Give reported Capping efficiency value for Nc1nc2c(ncn2[C@@H]2O[C@H](COP(=O)(O)OP(=O)(O)OP(=O)(O)OC[C@H]3O[C@@H](n4cnc5c(=O)[nH]c(N)nc54)[C@H](O)[C@@H]3O)[C@@H](O)[C@H]2O)c(=O)[nH]1 [GpppG, reference compound]
92
